Origin of values: patent US20220169598A1

# Tested on: HUVEC
# assayRemarks: Toxicity in healthy cell lines
# Type: cell-based
# conditionLabel: Homo sapiens, read-out: IC50 HUVEC
valueType: pIC50
Just so you know, pIC50 here is -log10 of the concentration in molar units; reply with that number alone.

IN: State its pIC50 on HUVEC: O=C(CCCCCCNC(=O)c1cnc(N(c2ccccc2)c2ccccc2)nc1)NO [Ricolinostat, reference compound]
OUT: 5.31

====

# system: HDAC2 (Homo sapiens, UniProt Q92769)
# Sequence (Q92769 whole entry): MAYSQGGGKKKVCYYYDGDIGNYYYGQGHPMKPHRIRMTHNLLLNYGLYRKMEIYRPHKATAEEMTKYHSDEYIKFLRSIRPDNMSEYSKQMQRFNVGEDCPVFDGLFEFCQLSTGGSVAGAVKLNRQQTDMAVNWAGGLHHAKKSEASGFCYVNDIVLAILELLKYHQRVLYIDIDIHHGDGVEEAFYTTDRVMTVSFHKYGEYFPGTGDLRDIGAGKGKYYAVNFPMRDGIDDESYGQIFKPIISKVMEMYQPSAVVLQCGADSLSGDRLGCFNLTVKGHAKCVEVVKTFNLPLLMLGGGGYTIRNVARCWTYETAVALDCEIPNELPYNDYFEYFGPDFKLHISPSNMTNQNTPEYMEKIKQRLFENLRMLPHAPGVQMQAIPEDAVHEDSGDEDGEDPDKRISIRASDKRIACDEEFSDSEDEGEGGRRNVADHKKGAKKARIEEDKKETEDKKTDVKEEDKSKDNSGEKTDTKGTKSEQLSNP
# assayRemarks: in vitro activity-based HDAC assay
# Type: biochemical
# conditionLabel: human HDAC isoform panel, Table 1
valueType: IC50

compound	IC50
O=C(NO)c1ccc(CN(C2CC2)S(=O)(=O)c2cc(F)c(F)c(F)c2F)cc1 [Compound I-13]	> 1000 nM
CC(C)N(Cc1ccc(C(=O)NO)cc1F)S(=O)(=O)c1cc(F)c(F)c(F)c1F [Compound I-50]	> 1000 nM

Next compound, IC50 to be filled in.
IN: // IC50 lookup, key: O=C(NO)c1ccc(CN(Cc2cccnc2)S(=O)(=O)c2cc(F)c(F)c(F)c2F)cc1 [Compound I-18]
OUT: > 1000 nM

====

Quick reference for pIC50 among some compounds
# system: HDAC5 (Homo sapiens, UniProt Q9UQL6)
# Sequence (Q9UQL6 whole entry): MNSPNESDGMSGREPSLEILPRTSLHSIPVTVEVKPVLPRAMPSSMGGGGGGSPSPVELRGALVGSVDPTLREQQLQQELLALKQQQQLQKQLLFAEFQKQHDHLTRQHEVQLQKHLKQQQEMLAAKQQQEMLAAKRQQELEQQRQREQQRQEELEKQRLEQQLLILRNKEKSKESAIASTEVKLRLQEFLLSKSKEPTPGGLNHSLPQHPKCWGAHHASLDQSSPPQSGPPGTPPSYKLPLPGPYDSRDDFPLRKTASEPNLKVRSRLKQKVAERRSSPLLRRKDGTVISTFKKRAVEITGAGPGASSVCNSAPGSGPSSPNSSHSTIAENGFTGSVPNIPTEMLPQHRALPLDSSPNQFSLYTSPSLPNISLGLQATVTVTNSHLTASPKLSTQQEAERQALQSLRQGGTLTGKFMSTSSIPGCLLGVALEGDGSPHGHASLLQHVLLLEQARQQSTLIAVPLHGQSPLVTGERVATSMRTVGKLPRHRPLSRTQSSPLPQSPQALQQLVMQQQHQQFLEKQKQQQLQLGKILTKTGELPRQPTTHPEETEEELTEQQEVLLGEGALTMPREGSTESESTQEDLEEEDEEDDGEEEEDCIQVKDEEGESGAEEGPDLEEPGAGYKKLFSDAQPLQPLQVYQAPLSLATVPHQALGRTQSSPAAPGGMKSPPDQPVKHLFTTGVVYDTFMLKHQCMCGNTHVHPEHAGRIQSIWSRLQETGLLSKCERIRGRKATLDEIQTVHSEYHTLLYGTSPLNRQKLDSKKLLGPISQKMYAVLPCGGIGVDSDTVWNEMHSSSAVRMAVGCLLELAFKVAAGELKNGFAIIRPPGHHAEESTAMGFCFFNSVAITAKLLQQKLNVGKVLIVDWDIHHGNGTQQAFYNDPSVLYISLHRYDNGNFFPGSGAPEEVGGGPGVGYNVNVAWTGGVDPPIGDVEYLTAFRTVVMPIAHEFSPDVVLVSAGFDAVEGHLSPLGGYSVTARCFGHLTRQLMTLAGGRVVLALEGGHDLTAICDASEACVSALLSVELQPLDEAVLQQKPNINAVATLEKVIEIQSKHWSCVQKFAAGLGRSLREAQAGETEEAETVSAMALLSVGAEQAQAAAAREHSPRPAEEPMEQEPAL
# assayRemarks: in vitro activity-based HDAC assay
# conditionLabel: human HDAC isoform panel, Table 1
pIC50: −log10 of the molar value.

Worked examples follow.
smilesCode	pIC50
O=C(NO)c1ccc(CN(Cc2cccnc2)S(=O)(=O)c2cc(F)c(F)c(F)c2F)cc1	< 6.00
CC(C)N(Cc1ccc(C(=O)NO)cc1F)S(=O)(=O)c1cc(F)c(F)c(F)c1F	< 6.00

Next compound, pIC50 to be filled in.
IN: // pIC50 lookup, key: `O=C(NO)c1ccc(CN(C2CC2)S(=O)(=O)c2cc(F)c(F)c(F)c2F)cc1`
OUT: < 6.00

====

Quick reference for pIC50 among some compounds
# system: UniProt:Q96DB2
# Sequence (Q96DB2 whole entry): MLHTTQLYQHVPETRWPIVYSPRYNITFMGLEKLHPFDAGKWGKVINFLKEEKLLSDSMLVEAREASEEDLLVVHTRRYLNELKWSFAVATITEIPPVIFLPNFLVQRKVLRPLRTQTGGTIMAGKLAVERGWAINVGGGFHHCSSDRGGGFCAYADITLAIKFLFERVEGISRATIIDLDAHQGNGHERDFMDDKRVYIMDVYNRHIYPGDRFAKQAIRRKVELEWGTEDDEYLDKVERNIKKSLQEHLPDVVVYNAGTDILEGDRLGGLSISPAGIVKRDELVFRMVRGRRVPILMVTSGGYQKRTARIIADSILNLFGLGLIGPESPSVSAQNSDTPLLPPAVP
# assayRemarks: in vitro activity-based HDAC assay
# conditionLabel: human HDAC isoform panel, Table 1
pIC50: −log10 of the molar value.

smilesCode	system	valueMeasured
O=C(NO)c1ccc(CN(C2CC2)S(=O)(=O)c2cc(F)c(F)c(F)c2F)cc1	UniProt:Q96DB2	< 6.00

IN: // pIC50 lookup, key: `O=C(NO)c1ccc(CN(Cc2cccnc2)S(=O)(=O)c2cc(F)c(F)c(F)c2F)cc1`
OUT: < 6.00

====

# system: HDAC1 (Homo sapiens)
# Sequence (Q13547 whole entry): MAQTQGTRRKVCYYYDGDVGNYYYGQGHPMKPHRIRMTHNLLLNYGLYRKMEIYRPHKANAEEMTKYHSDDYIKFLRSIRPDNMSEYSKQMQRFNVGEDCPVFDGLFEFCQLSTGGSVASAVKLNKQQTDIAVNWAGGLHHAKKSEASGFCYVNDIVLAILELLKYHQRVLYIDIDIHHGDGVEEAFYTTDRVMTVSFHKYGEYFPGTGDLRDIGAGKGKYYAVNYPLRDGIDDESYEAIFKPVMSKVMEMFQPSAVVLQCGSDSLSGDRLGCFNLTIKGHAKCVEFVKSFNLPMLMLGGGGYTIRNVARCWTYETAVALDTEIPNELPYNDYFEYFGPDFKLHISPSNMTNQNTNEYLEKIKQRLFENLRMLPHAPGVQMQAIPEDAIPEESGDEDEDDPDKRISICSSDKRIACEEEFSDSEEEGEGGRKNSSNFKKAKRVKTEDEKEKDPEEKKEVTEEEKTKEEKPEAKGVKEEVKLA
# assayRemarks: in vitro activity-based HDAC assay
# Format: biochemical
# conditionLabel: human HDAC isoform panel, Table 1
# Protocol: The exemplary compounds of Formula I and structurally related compounds were synthesized to assess their structure-activity relationship. […] The IC50 values for each exemplary compound were used to calculate the selectivity of the exemplary compounds for Formula I to HDAC6. The selectivity of each exemplary compound for HDAC6 was determined from examining the potency of HDAC6 in relation to the highest binding affinity of the other HDAC isoforms tested.
Quick reference for IC50 among some compounds

smilesCode	IC50
CC(C)N(Cc1ccc(C(=O)NO)cc1F)S(=O)(=O)c1cc(F)c(F)c(F)c1F	> 1000 nM

Next compound, IC50 to be filled in.
IN: // IC50 lookup, key: `O=C(NO)c1ccc(CN(C2CC2)S(=O)(=O)c2cc(F)c(F)c(F)c2F)cc1`
OUT: > 1000 nM

====

Quick reference for IC50 among some compounds
# system: UniProt:Q9UBN7
# Sequence (Q9UBN7 1-1215): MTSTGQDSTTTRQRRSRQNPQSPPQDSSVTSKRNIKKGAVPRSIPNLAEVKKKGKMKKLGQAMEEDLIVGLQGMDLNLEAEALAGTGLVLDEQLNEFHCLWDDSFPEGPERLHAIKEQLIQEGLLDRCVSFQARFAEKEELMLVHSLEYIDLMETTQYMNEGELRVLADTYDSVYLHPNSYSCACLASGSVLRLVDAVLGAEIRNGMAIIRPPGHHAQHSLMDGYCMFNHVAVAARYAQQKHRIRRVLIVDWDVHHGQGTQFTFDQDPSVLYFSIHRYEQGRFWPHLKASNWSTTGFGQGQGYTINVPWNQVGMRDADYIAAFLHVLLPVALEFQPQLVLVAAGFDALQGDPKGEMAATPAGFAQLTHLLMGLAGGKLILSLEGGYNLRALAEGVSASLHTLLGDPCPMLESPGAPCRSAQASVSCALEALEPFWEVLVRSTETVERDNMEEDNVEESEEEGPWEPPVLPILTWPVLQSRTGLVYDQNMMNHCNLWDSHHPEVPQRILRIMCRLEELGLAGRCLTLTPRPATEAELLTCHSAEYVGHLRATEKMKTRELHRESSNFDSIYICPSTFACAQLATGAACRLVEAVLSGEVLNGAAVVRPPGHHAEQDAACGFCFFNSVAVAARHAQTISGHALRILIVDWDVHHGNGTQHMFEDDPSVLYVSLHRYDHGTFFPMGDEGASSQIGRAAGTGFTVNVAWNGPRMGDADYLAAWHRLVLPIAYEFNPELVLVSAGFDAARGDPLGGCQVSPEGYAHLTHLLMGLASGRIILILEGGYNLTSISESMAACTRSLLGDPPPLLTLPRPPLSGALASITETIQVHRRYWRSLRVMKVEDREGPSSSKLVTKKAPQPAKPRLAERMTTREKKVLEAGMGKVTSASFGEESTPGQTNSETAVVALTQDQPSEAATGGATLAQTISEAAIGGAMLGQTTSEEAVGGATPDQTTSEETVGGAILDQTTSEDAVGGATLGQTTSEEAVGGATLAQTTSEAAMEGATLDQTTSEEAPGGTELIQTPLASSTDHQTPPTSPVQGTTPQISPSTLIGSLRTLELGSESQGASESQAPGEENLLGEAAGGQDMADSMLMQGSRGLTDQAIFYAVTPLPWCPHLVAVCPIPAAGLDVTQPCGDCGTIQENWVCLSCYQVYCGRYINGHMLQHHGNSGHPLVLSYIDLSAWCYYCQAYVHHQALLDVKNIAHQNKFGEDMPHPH
# assayRemarks: in vitro activity-based HDAC assay
# Type: biochemical
# conditionLabel: ranges given; read-out: IC50 for HDAC6
# Method: The exemplary compounds of Formula I and structurally related compounds were synthesized to assess their structure-activity relationship. […] The IC50 values for each exemplary compound were used to calculate the selectivity of the exemplary compounds for Formula I to HDAC6. The selectivity of each exemplary compound for HDAC6 was determined from examining the potency of HDAC6 in relation to the highest binding affinity of the other HDAC isoforms tested.

Worked examples follow.
compound	valueType	valueMeasured
O=C(/C=C/c1ccc(CN(C2CCCC2)S(=O)(=O)c2cc(F)c(F)c(F)c2F)cc1)NO	IC50	150 to 200 nM
O=C(/C=C/c1ccc(CNC(=O)c2cc(F)c(F)c(F)c2F)cc1)NO	IC50	10 to 30 nM
CC(c1ccc(F)cc1)N(Cc1ccc(/C=C/C(=O)NO)cc1)S(=O)(=O)c1c(F)c(F)c(F)c(F)c1F (stereo not shown)	IC50	10 to 30 nM
CC(C)N(Cc1ccc(CC(=O)NO)cc1)S(=O)(=O)c1cc(F)c(F)c(F)c1F	IC50	100 to 150 nM
O=C(/C=C/c1ccc(CNC(=O)c2c(F)c(F)c(F)c(F)c2F)cc1)NO	IC50	10 to 30 nM

IN: State its IC50 on UniProt:Q9UBN7: `O=C(Cc1ccc(CN(C2CC2)S(=O)(=O)c2cc(F)c(F)c(F)c2F)cc1)NO`
OUT: 100 to 150 nM

IN: State its IC50 on UniProt:Q9UBN7: `O=C(/C=C/c1ccc(CN(C2CCCC2)S(=O)(=O)c2c(F)c(F)c(F)c(F)c2F)cc1)NO`
OUT: 10 to 30 nM

IN: State its IC50 on UniProt:Q9UBN7: `O=C(/C=C/c1ccc(CN(Cc2ccc(F)cc2)S(=O)(=O)c2c(F)c(F)c(F)c(F)c2F)cc1)NO`
OUT: 10 to 30 nM

IN: State its IC50 on UniProt:Q9UBN7: `O=C(/C=C/c1ccc(CN(c2ccccc2)S(=O)(=O)c2cc(F)c(F)c(F)c2F)cc1)NO`
OUT: 10 to 30 nM

IN: State its IC50 on UniProt:Q9UBN7: `COc1ccc(CN(Cc2ccc(/C=C/C(=O)NO)cc2)S(=O)(=O)c2c(F)c(F)c(F)c(F)c2F)cc1`
OUT: 30 to 50 nM

====

# assayRemarks: Kinetic solubility by analytical HPLC
# Format: physicochemical
# conditionLabel: PBS with 5% (v/v) DMSO, aqueous with cosolvent or surfactant or cyclodextrin, kinetic from dmso stock; PBS + 5% DMSO; initial concentration 300 μM; read-out: Saturation Concentration
valueType: solubility kinetic (µM)
Please state the figure in µM; there is no need to write the unit.

Worked examples follow.
molecule	solubility kinetic (µM)
O=C(NO)c1ccc(CN(Cc2cccnc2)S(=O)(=O)c2cc(F)c(F)c(F)c2F)c(F)c1 [Compound I-30]	46
O=C(NO)c1ccc(CN(C2CC2)S(=O)(=O)c2cc(F)c(F)c(F)c2F)cc1 [Compound I-13]	88.1
O=C(CCCCCCNC(=O)c1cnc(N(c2ccccc2)c2ccccc2)nc1)NO [Ricolinostat, reference compound]	26.1
CC(C)N(Cc1ccc(C(=O)NO)cc1)S(=O)(=O)c1cc(F)c(F)c(F)c1F [Compound I-12]	74.5

Next molecule, solubility kinetic to be filled in.
IN: // solubility kinetic lookup, key: O=C(NO)c1ccc(CN(Cc2cccnc2)S(=O)(=O)c2cc(F)c(F)c(F)c2F)cc1 [Compound I-18]
OUT: 142
